Assay read-out IC50 on mGluR5 receptor (Sus scrofa); records merged from the literature.
# label = met if IC50 < 200 nM else not met

smi | target under test | class assignment
COc1ccc2c(c1)CCN(C(=O)C#Cc1ccccc1)C2 | mGluR5 receptor (Sus scrofa) | not met
Cc1cnc(N(C)CCNC(=O)C#Cc2cccc(Cl)c2)s1 | mGluR5 receptor (Sus scrofa) | met
Cc1ccc2c(c1)CN(C(=O)C#Cc1cccc(Cl)c1)CC2 | mGluR5 receptor (Sus scrofa) | met
COc1cccc(C#Cc2ccc(-c3nc4cnccn4c3NC(C)(C)C)s2)n1 | mGluR5 receptor (Sus scrofa) | not met
O=C(C#Cc1ccccc1)NCCNc1nccs1 | mGluR5 receptor (Sus scrofa) | not met
Cc1cccc(C#Cc2ccc(-c3nc4cnccn4c3NC(C)(C)CC(C)(C)C)s2)n1 | mGluR5 receptor (Sus scrofa) | not met
CN(CCNC(=O)C#Cc1cccc(Cl)c1)c1nccn1C | mGluR5 receptor (Sus scrofa) | not met
CC(C)(C)CC(C)(C)Nc1c(-c2ccc(C#Cc3cccnc3)s2)nc2cnccn12 | mGluR5 receptor (Sus scrofa) | not met
CC(C)(C)Nc1c(-c2ccc(C#Cc3ccnc(F)c3)s2)nc2sccn12 | mGluR5 receptor (Sus scrofa) | met
COC(=O)CN(CC(=O)OC)c1c(-c2ccc(C#Cc3ccccc3)s2)nc2cnccn12 | mGluR5 receptor (Sus scrofa) | not met
O=C(C#Cc1cccc(Cl)c1)N1CCn2cccc2C1 | mGluR5 receptor (Sus scrofa) | met
Cc1cccn2c(NC(C)(C)C)c(-c3ccc(C#Cc4ccccc4)s3)nc12 | mGluR5 receptor (Sus scrofa) | not met
CC(C)(C)Nc1c(-c2ccc(C#Cc3ncccc3N)s2)nc2ccccn12 | mGluR5 receptor (Sus scrofa) | met
O=C(C#Cc1cccc(Cl)c1)NCCc1ccc(F)cc1 | mGluR5 receptor (Sus scrofa) | met
O=C(C#Cc1cccc(Cl)c1)NCCc1ccccc1F | mGluR5 receptor (Sus scrofa) | met
CC(C)(C)Nc1c(-c2ccc(C#Cc3ccc(N)cc3)s2)nc2cnccn12 | mGluR5 receptor (Sus scrofa) | not met
CC(C)(C)Nc1c(-c2ccc(C#Cc3cccc(O)c3)s2)nc2sccn12 | mGluR5 receptor (Sus scrofa) | met
Cc1ccc(CCNC(=O)C#Cc2cccc(Cl)c2)cc1 | mGluR5 receptor (Sus scrofa) | not met
CN(CCn1cccn1)C(=O)C#Cc1cccc(Cl)c1 | mGluR5 receptor (Sus scrofa) | met
CN(CCc1ccccn1)C(=O)C#Cc1cccc(Cl)c1 | mGluR5 receptor (Sus scrofa) | met
CC(C)(C)Nc1c(-c2ccc(C#Cc3ccccn3)o2)nc2sccn12 | mGluR5 receptor (Sus scrofa) | met
COc1cc2c(cc1O)CCN(C(=O)C#Cc1cccc(Cl)c1)C2 | mGluR5 receptor (Sus scrofa) | not met
CN(CCc1ccccc1)C(=O)C#Cc1cccc(Cl)c1 | mGluR5 receptor (Sus scrofa) | met
COCc1cccc(C#Cc2ccc(-c3nc4ccccn4c3NC(C)(C)C)s2)c1 | mGluR5 receptor (Sus scrofa) | not met
CN(CCc1ccccc1F)C(=O)C#Cc1cccc(Cl)c1 | mGluR5 receptor (Sus scrofa) | met
COC(=O)c1cnc(N(C)CCNC(=O)C#Cc2cccc(Cl)c2)s1 | mGluR5 receptor (Sus scrofa) | met
CN(c1c(-c2ccc(C#Cc3ccccc3)s2)nc2cnccn12)C(C)(C)C | mGluR5 receptor (Sus scrofa) | met
O=C(C#Cc1cccc(Cl)c1)N(CCc1ccccc1)C1CC1 | mGluR5 receptor (Sus scrofa) | not met
CC(C)(C)Nc1c(-c2ccc(C#Cc3cccc(C4OCCO4)c3)s2)nc2ccccn12 | mGluR5 receptor (Sus scrofa) | not met
CC(C)(C)Nc1c(-c2ccc(C#Cc3ccccc3)s2)nc2cnccn12 | mGluR5 receptor (Sus scrofa) | met
CC(C)(C)Nc1c(-c2ccc(C#Cc3ccccc3)s2)nc2ccc3ccccc3n12 | mGluR5 receptor (Sus scrofa) | not met
CC(C)(C)Nc1c(-c2ccc(C#Cc3ccccc3)s2)nc2c3ccccc3ccn12 | mGluR5 receptor (Sus scrofa) | not met
